# tgt: Cannabinoid receptor (Homo sapiens, UniProt P34972+P21554)
# assay details: The affinity of compound for the cannabinoid brain receptor was determined by measuring its ability to displace [3H]CP-55940 from its binding site in a membrane preparation
# Type: cell membranes
Entries annotated with measured Ki
Write it as a number; the unit pM goes unstated.

Cannabinoid receptor (Homo sapiens, UniProt P34972+P21554) Ki of CC1=CC[C@@H]2[C@@H](C1)c1c(O)cc(C(C)C(C)C3CCCC3)cc1OC2(C)C (stereo not given in full) is 840

Cannabinoid receptor (Homo sapiens, UniProt P34972+P21554) Ki of CCCCCCC(C)(C)c1cc(O)c2c(c1)OC(C)(C)[C@@H]1CC=C(C)C[C@@H]21 is 770

Cannabinoid receptor (Homo sapiens, UniProt P34972+P21554) Ki of CC1=CC[C@H]2[C@@H](C1)c1c(O)cc(C(C)C(C)C3CCCC3)cc1OC2(C)C (stereo not given in full) is 460

Cannabinoid receptor (Homo sapiens, UniProt P34972+P21554) Ki of CC1=CC[C@@H]2[C@H](C1)c1c(O)cc(C(C)C(C)C3CCCC3)cc1OC2(C)C (stereo not given in full) is 600

Cannabinoid receptor (Homo sapiens, UniProt P34972+P21554) Ki of CC1=CC[C@H]2[C@H](C1)c1c(O)cc(C(C)C(C)C3CCCC3)cc1OC2(C)C (stereo not given in full) is 810
